Test system: SF-295 CNS
Assay: NCI-60 one-dose screen, 48 h (100 = growth as untreated, 0 = no growth, -100 = all killed)
Details: 10 µM unless noted
Compounds without any hit were thinned out: in the full panel of roughly 83,000, 20% have a hit. The source made the active and inactive calls. The calls were made as follows: active = growth percent below 10; inactive = the rest.
compounds and their reported growth
measured.endpoint: growth

> print(dat)
                                    compound  assayed.system                test.value
 1  COc1cc(NC(=O)CSc2nc3ccc(Cl)cc3c(=O)n2Cc2ccccc2)cc(OC)c1OC      SF-295 CNS          84.1% (inactive)
 2       COc1ccc2nc(C)cc(Sc3nc4ccccc4s3)c2c1      SF-295 CNS          82.5% (inactive)
 3  COc1ncnc2[nH]cc(CN3CCN(c4ccc(F)cc4)CC3)c12      SF-295 CNS          98.1% (inactive)
 4  COc1ccc(/C=C(\C#N)c2cc(OC)c(OC)c(OC)c2)cc1      SF-295 CNS          14.1% (inactive)
 5  COc1cnc2c(c1)C(=O)c1c-2n(CCCN2CCN(C)CC2)c(=O)c2cc(Cl)ccc12      SF-295 CNS          35.5% (inactive)
 6  O=[N+]([O-])c1ccc(Sc2nc(Cl)nc(NC3CCCC3)n2)cc1      SF-295 CNS  -93.9% [100 µM] (active)
 7             CCN(CC)C(=O)O/N=C(/C)c1ccccc1      SF-295 CNS           105% (inactive)
 8  CCN1C(=O)/C(=C/N2N=C(c3ccc(Cl)cc3)CC2c2ccc(OC)cc2)SC1=S (stereo not given)      SF-295 CNS          89.6% (inactive)
 9              O=C(N/N=C/c1ccccc1O)c1ccncc1      SF-295 CNS            54% (inactive)
10  CC1OC(n2c3ccccc3c3c4c(c5c6ccccc6[nH]c5c32)C(=O)N(CCN[C@H]2CCC[C@@H]2N)C4=O)CC(O)C1O (stereo not given in full)      SF-295 CNS          25.6% (inactive)
